Would you mind telling me the reported percent of parent of each entry?
B1: TMEM59 peptide (residues 268–280), wild type [modified: long spacer (Tds) at the N-terminal end, used for immobilisation; long spacer (Tds) at the N-terminal end, used for immobilisation] [not stated] / GST-HA-ATG16L1(231–607) … (parent)
chain 1: PLPVEQDDDIEVIVDETSDHTEETSPVRAISRAATKRLSQPAGGLLDSITNIFGRRSVSSFPVPQDNVDTHPGSGKEVRVPATALCVFDAHDGEVNAVQFSPGSRLLATGGMDRRVKLWEVFGEKCEFKGSLSGSNAGITSIEFDSAGSYLLAASNDFASRIWTVDDYRLRHTLTGHSGKVLSAKFLLDNARIVSGSHDRTLKLWDLRSKVCIKTVFAGSSCNDIVCTEQCVMSGHFDKKIRFWDIRSESIVREMELLGKITALDLNPERTELLSCSRDDLLKVIDLRTNAIKQTFSAPGFKCGSDWTRVVFSPDGSYVAAGSAEGSLYIWSVLTGKVEKVLSKQHSSSINAVAWSPSGSHVVSVDKGCKAVLWAQY
chain 2: YVPSEKLSIYGDL

variants of: B1; test: peptide microarray; conditions: with GST-HA-ATG16L1(231–607) [human]; ligand 200, 50, 20 nM; parent: 100
Numbers only, in % WT.

Worked examples follow.
mutation_name | quantity_measured | value_observed
chain 2 Y1G | percent of parent | 94
chain 2 S8I | percent of parent | 41
chain 2 S4G | percent of parent | 49
chain 2 P3G | percent of parent | 143
chain 2 P3S | percent of parent | 184
chain 2 L7A | percent of parent | 98
chain 2 V2F | percent of parent | 250
chain 2 P3T | percent of parent | 518
chain 2 L7F | percent of parent | 102
chain 2 S4Y | percent of parent | 320

Each variant below has a reported value. Please supply its percent of parent.
1. chain 2 K6T
2. chain 2 L7V
3. chain 2 V2W

7
153
118
